Tgt: Fc
Protocol Summary: phage ELISA, Fc coated
Quantity Name: OD490

Below are worked cases with known answers.
Binder	OD490
DLK1 B09 (monoclonal scFv-phage) (scFv, V domains shown) VH: QMQLVESGGRLVRPGGSLRLSCAASGFPFTSYAMNWVRQTPGKGLEWVSTITATSGKTYYADSVKGRFTISRDNSRNTLFLQMNSLRAEDTAVYYCVRGESCSGGACSDFDYWGQGALVTVSS VL: QLVLTQPASVSGSPGQSVTISCTGTSSDIGRYNRVSWYQHHPGKAPKLILNDVTTRPSGFSNRFSGSKSGNTASLTISGLQAEDEADYSCGSYAGSYTYVFGTGTKVTVL	0.0786 OD
DLK1 A04 (monoclonal scFv-phage) (scFv, V domains shown) VH: QVQLVESGAEVKKPGASVKVSCKASGYTFKDYAIHWVRQAPGQRLEWMGWINPGSGNTKYSHNFEGRVILTRDASANTAYLELPSLRSEDTAVYYCARSVSAYGSNYFDPWGQGTLITVSS VL: DIQMTQSPSSLSASVGDRVTITCQASQDISNYLNWYQQKPGKAPKLLIYSTSNLQSGVPSRFSGSGSGTDFTLTISSLQPEDFATYYCQQLNSYPLTFGGGTKVDIK	0.0791 OD

Now turn to the next binder.
Which OD490 value belongs to DLK1 A10 (monoclonal scFv-phage) (scFv, V domains shown) VH: QVQLVESGGGLVQPGRSLRLSCAASGFTFDDYAMHWVRQAPGKGLEWVSGISWNSGSIGYADSVKGRFTISRDNAKNSLYLQMNSLRAEDTAVYYCARGPGLATGKGYADYWGQGTLVTVSS VL: DIQMTQSPSSVSASVGDRVTITCRASQRISSWLAWYQQKPGRAPKLLIHSASTLHNGVPSRFSGSASGTDFTLTISSLQPEDYAIYYCQQGHSFPYTFGQGTKLEIK ?
0.0828 OD
